TEST SYSTEM: recombinant human Cyp19 enzyme (Homo sapiens, UniProt P11511)
Sequence (P11511 whole entry): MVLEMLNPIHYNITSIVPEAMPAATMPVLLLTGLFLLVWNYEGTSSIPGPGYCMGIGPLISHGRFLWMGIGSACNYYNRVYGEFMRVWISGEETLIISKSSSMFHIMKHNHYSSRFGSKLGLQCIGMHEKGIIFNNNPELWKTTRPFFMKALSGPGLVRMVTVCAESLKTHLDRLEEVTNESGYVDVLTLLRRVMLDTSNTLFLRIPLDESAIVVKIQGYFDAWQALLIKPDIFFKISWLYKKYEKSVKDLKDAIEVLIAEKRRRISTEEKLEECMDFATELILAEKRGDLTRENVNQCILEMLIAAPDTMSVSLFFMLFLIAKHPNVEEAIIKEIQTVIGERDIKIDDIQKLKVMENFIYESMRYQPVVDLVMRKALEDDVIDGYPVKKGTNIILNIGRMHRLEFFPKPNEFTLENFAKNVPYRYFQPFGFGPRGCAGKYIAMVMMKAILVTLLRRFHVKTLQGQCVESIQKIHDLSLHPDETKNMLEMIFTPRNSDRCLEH
ASSAY METHOD TEXT: Cyp19/MFC high throughput enzyme inhibition kit (aromatase)
METRIC NAME: IC50

-- ask Look up IC50 for this molecule: N#Cc1ccc(C2OCCn3cncc32)cc1 (racemic) [antipode of 24]
-- reply 7.1 nM
